Experiment: in vitro
Details: human, hela cells, % viability
quantityKind: viability at 28.5 h, 10 µM (%)
Write the answer as a number in %, unit excluded.

Prompt line: Query: viability at 28.5 h, 10 µM; subject: CN(C)CC(=O)Nc1ccc(Oc2ccc(Cl)cc2)cc1 [CBK269459C]
Response line: 94.9

Prompt line: Same question, CN(C)CCN(C)c1nc(-c2cc(C(F)(F)F)cc(C(F)(F)F)c2)cn2ccnc12 [CBK037971] this time
Response line: 104

Prompt line: Same question, CCn1nc2c(C)cc3ccc(OC)cc3n2c1=O [CBK283796] this time
Response line: 78.3

Prompt line: Same question, O=c1oc2cc(S(=O)(=O)NCc3ccco3)ccc2c2ccc(S(=O)(=O)NCc3ccco3)cc12 [CBK267177] this time
Response line: 96.5

Prompt line: Same question, CN1CCN(CCOC(=O)N2CCN(C(c3ccccc3)c3ccccc3)CC2)CC1 [CBK200419] this time
Response line: 89

--- query ---
Prompt line: Query: viability at 28.5 h, 10 µM; subject: Cc1c(Cl)cccc1S(=O)(=O)Nc1nccnc1C(=O)O [CBK024795]
Response line: 90.9

###

Each entry below carries its reported viability at 28.5 h, 10 µM.
Assay: in vitro
Conditions: human, hela cells, % viability
Write the answer as a number in %, unit excluded.

Please review the entries below; each comes with its answer.
Prompt line: Query: viability at 28.5 h, 10 µM; subject: CC1(C)C(=O)NCCN1C(=O)Cn1cnc2ccccc21 [CBK281856]
Response line: 89.3

Prompt line: Same question, Cc1c(C(=O)Nc2cccc(C(F)(F)F)c2)sc2nc(-c3ccccc3)cn12 [CBK294408] this time
Response line: 87.9

Prompt line: Same question, Oc1ccc(/C=N/Nc2nnn[nH]2)c(O)c1 [CBK260972] this time
Response line: 99

More entries:
Prompt line: Query: viability at 28.5 h, 10 µM; subject: Cc1nnc(CCNC(=O)c2cccc(C#N)c2)n1C [CBK306017]
Response line: 85.4

Prompt line: Same question, Cc1nc(NS(=O)(=O)/C=C/c2ccccc2)sc1C(=O)O [CBK045553] this time
Response line: 84.7

Prompt line: Same question, NC(=O)Nn1c(CCC(=O)O)ccc1-c1cccs1 [CBK266019] this time
Response line: 93.1

Prompt line: Same question, COc1ccc(C(=O)N2CCC3(CCN(Cc4cccc(C#N)c4)C3)C2)cc1OC (centres unmarked) [CBK132153] this time
Response line: 87.7

Prompt line: Same question, O=C(NCC(c1ccccc1)c1ccccc1)N1CCN(c2ccccc2)CC1 [CBK155197] this time
Response line: 89.8

Prompt line: Same question, c1ccc2sc(SCc3nc4c5c6c(sc5ncn4n3)CCCC6)nc2c1 [CBK262923] this time
Response line: 92.5

Prompt line: Same question, COc1ccccc1C(=O)Nc1ccccc1N1CCN(C)CC1 [CBK267938] this time
Response line: 91.8

Prompt line: Same question, COc1ccc(N(CC(=O)NC2CC3CCC2C3)S(=O)(=O)c2ccc(C)cc2)cc1 (centres unmarked) [CBK266574] this time
Response line: 108

Prompt line: Same question, O=C(NCC1COc2ccccc2O1)c1ccc2[nH]ccc2c1 (centres unmarked) [CBK149054] this time
Response line: 91.2

Prompt line: Same question, C=CCNC(=O)C1CCN(c2nc3ccccc3n2CC)CC1 [CBK283920] this time
Response line: 113

###

Assay: in vitro
Details: human, hela cells, % viability
Each entry below carries its reported viability at 28.5 h, 10 µM.
Write the answer as a number in %, unit excluded.

Please review the entries below; each comes with its answer.
Prompt line: Query: viability at 28.5 h, 10 µM; subject: C=CCNC(=O)CN1CCC(c2ccc(OC)cc2)CC1 [CBK283560]
Response line: 106

Prompt line: Same question, O=C(NCc1ccc(Cl)cc1)N1CCN(c2ccccc2)CC1 [CBK155193] this time
Response line: 97.9

Prompt line: Same question, Cc1ccccc1-c1ccccc1CC1(C(=O)N(C)C)CCN(C(=O)CC(C)(C)C)CC1 [CBK285715] this time
Response line: 95.1

Prompt line: Same question, Cc1cc(C(=O)NC2CCCc3c2cnn3-c2ccc(F)cc2)on1 (stereo not drawn) [CBK282310] this time
Response line: 108

Prompt line: Same question, CN(C)CCN(C)c1cncc(-c2cc3ccccc3o2)n1 [CBK066028] this time
Response line: 92.7

Prompt line: Same question, CC(C)(C)OC(=O)N1CCCN(c2ccc(S(=O)(=O)c3ccccc3)c([N+](=O)[O-])c2)CC1 [CBK138502] this time
Response line: 99.2

More entries:
Prompt line: Query: viability at 28.5 h, 10 µM; subject: Cc1cc(C)n(CC(O)CN(Cc2ccco2)Cc2cccs2)n1 (stereo not drawn) [CBK282979]
Response line: 100

Prompt line: Same question, CCNC(=O)N1CC2(CCN(CCn3cccc3)CC2)c2ccccc21 [CBK143945] this time
Response line: 93

Prompt line: Same question, COC(=O)c1sccc1-c1ccc(C2C3=C(CCCC3=O)NC3=C2C(=O)CCC3)o1 [CBK005748] this time
Response line: 92.3

Prompt line: Same question, O=C1NC2(CCCCC2)C(=O)N1Cc1cnn(-c2ccccc2)n1 [CBK305570] this time
Response line: 97.8

Prompt line: Same question, O=S(=O)(Nc1nccnc1-c1cccs1)C1CC1 [CBK050764] this time
Response line: 93.9

Prompt line: Same question, COc1ccc(S(=O)(=O)N(Cc2c(F)cccc2F)C2CCN(C)CC2)cc1 [CBK161910T] this time
Response line: 109

Prompt line: Same question, Cc1cc(-c2cn(C)nc2C2CCCN2C(=O)CC(C)(C)C)on1 (stereo not drawn) [CBK283453] this time
Response line: 87.3

Prompt line: Same question, Cc1ccc(OCC(=O)NC(=S)Nc2cc(C(=O)O)ccc2C)cc1C [CBK264955] this time
Response line: 92.8

Prompt line: Same question, CC(C)c1n[nH]c2c1/C(=N\N)c1ccccc1-2 [CBK017384] this time
Response line: 85.4

Prompt line: Same question, COc1ccc(C(=O)N2CCC3(CCN(CCN4CCCCC4)C3)C2)cc1OC (stereo not drawn) [CBK137113T] this time
Response line: 103

Prompt line: Same question, COc1ccc2c(c1)sc1ncc(C#N)n12 [CBK016716] this time
Response line: 87.9

Prompt line: Same question, Cc1ccc(-c2c(C(=O)NNC(=S)NCc3ccco3)csc2C)cc1 [CBK266992] this time
Response line: 96.3

Prompt line: Same question, O=c1c2cc(F)ccc2nc2n1CCN(Cc1cccs1)CC2 [CBK284859] this time
Response line: 110

Prompt line: Same question, CN(C)c1ccc(NC(=O)CC2S/C(=N/c3ccccc3)N(c3ccccc3)C2=O)cc1 (stereo not drawn) [CBK265644] this time
Response line: 92.7

Prompt line: Same question, O=C(NC(=S)Nc1ccc(N2CCN(Cc3ccccc3Cl)CC2)cc1)c1ccco1 [CBK266066] this time
Response line: 101

Prompt line: Same question, CCOC(=O)c1[nH]c2ccccc2c1NC(=O)c1ccc(Cl)c(C)c1 [CBK160146] this time
Response line: 87

Prompt line: Same question, COc1ncccc1C(=O)NCC(CC(=O)O)c1ccc(Cl)cc1 (stereo not drawn) [CBK287264] this time
Response line: 92.1

Prompt line: Same question, CC[C@H](Cn1c(=O)oc2ccccc21)NC(=O)c1cccs1 [CBK284540] this time
Response line: 80.7

Prompt line: Same question, O=C(c1nn2c(C(F)(F)F)cc(-c3ccccc3)nc2c1Br)N1CCCCC1 [CBK051497] this time
Response line: 97.6

Prompt line: Same question, C1CN2CCC1/C(=N\Nc1nnn[nH]1)C2 [CBK019005C] this time
Response line: 93.8

Prompt line: Same question, Cn1ccnc1C1(O)CCN(C(=O)Nc2cccc(F)c2)CC1 [CBK282279] this time
Response line: 109

Prompt line: Same question, CC1CCCN(CC(C)(C)NC(=O)c2cc(C(F)(F)F)nn2C)C1 (stereo not drawn) [CBK281598] this time
Response line: 87.9

Prompt line: Same question, CC1CC1C(=O)N(C)C1CCN(c2ncnc3ccccc23)CC1 (stereo not drawn) [CBK304972] this time
Response line: 83.3

###

Experiment: in vitro
Conditions: human, hela cells, % viability
quantityKind: viability at 28.5 h, 10 µM (%)
Write the answer as a number in %, unit excluded.

Please review the entries below; each comes with its answer.
Prompt line: Query: viability at 28.5 h, 10 µM; subject: COc1cc(C=CC(=O)O)ccc1OCc1cn2cc(Cl)ccc2n1
Response line: 99.1

Prompt line: Same question, O=C(c1ccccc1CCc1ccccc1)N1CCN(Cc2ccc3c(c2)OCO3)CC1 this time
Response line: 120

Prompt line: Same question, O=C1COCC(=O)N1c1ccccn1 this time
Response line: 89.2

Prompt line: Same question, COc1ccc(N2C(=O)CC(Nc3ccc(Cc4nc5ccccc5[nH]4)cc3)C2=O)cc1 (centres unmarked) this time
Response line: 96.9

Prompt line: Same question, O=C1CC[C@@H](NCc2cccnc2)[C@H](c2cc(F)cc(F)c2)N1 this time
Response line: 90.9

Prompt line: Same question, O=C(Nc1ccc2n(c1=O)C[C@H]1C[C@@H]2CN(C(=O)Nc2ccc(F)cc2)C1)c1ccco1 this time
Response line: 85.4

Prompt line: Same question, CN1CCN(C(C(=O)O)c2c[nH]c3cc(OCc4ccccc4)ccc23)CC1 (centres unmarked) this time
Response line: 84.6

Prompt line: Same question, FC(F)(F)c1ccc(CN2CCCN(c3cc(OC4CCCCC4)ncn3)CC2)cc1 [CBK083277T] this time
Response line: 112

Prompt line: Same question, CN(C)c1nc(N2CCOCC2)c(C#N)c(=O)o1 this time
Response line: 116

Prompt line: Same question, CCCc1cc(=O)[nH]c(N/C(=N/C(=O)c2ccccc2)Nc2ccc3c(c2)OCCO3)n1 this time
Response line: 99.5

More entries:
Prompt line: Query: viability at 28.5 h, 10 µM; subject: CN(C)c1ccc(-c2nc(-c3ccco3)cnc2N)cc1
Response line: 104

Prompt line: Same question, Cc1ccc(S(=O)(=O)N(CC(=O)Nc2ccc(Cl)cc2C)c2cccc(Cl)c2C)cc1 this time
Response line: 85.7

Prompt line: Same question, COc1ccc2c(c1)Cc1sc(NC(C)=O)nc1-2 this time
Response line: 93.8

Prompt line: Same question, OB(O)c1ccc(Oc2ccc(B(O)O)cc2)cc1 this time
Response line: 102

Prompt line: Same question, Cc1cc(C)cc(NC(=O)C2C3C4CCC(C4)C23)c1 (centres unmarked) this time
Response line: 108

Prompt line: Same question, COc1nccnc1OC1CCN(CC(=O)Nc2c(C)cccc2C)CC1 this time
Response line: 96.1

Prompt line: Same question, CC1CCN(CCCNS(=O)(=O)c2ccc(N3CCCC3=O)cc2)CC1 this time
Response line: 95.9

Prompt line: Same question, O=C(Cc1ccc(Cl)cc1Cl)Nc1ccc2ncccc2c1 this time
Response line: 91.5

Prompt line: Same question, CC(C)Oc1cc(NC(=O)CS(=O)(=O)CC(=O)N(C)C)c(Cl)cc1Cl this time
Response line: 113

Prompt line: Same question, COc1cccc(/C=C/c2nc(C#N)c(NCCCN3CCOCC3)o2)c1 this time
Response line: 107
